// reported recovery at 4 h, 5 µM for each item listed
Test: Plasma protein binding (equilibrium dialysis), dog
Format: in vitro ADME
Settings: plasma (freshly thawed), PPB assay recovery
Procedure: Prior to the start of the experiment, dialysis membranes (membrane strips, MW cut-off 12-14 kDa, HTDialysis, Cat.NoJl 101) are soaked in deionized water for 60 min, transferred and left overnight in 20% EtOH. […] Equilibrium Dialysis Device (96-well, model HTD96b, HTDialysis, Cat. No. #1006) is assembled according to manufacturer's instructions. […] If the PPB values for these controls are not in the range determined by the historical data, the assay is not validated. […]

| molecule | u | recovery at 4 h, 5 µM |
| --- | --- | --- |
| CC(C)Cc1cc(F)c(-c2nn[nH]n2)c(N2CCN(Cc3ccccn3)[C@@H](C)C2)c1 | % | 96 |
| CC(C)Cc1cc(F)c(-c2nn[nH]n2)c(N2CCN(Cc3cccnn3)[C@@H](C)C2)c1 | % | 97 |

====

molecular target: human AT2R fused to Cb23 (Homo sapiens); assay: Radioligand binding assay, displacement of 125I-[Sar1, Ile8]-Angiotensin II, hAT2R Cb23; conditions: displacement of 125I-[Sar1, Ile8]-Angiotensin II, human AT2R fused to Cb23, HEK-293 cell membrane preparations; read-out: Binding affinity on hAT2R_Cb23 IC50
Sequence (P50052 whole entry, looked up, the tested form may be a part): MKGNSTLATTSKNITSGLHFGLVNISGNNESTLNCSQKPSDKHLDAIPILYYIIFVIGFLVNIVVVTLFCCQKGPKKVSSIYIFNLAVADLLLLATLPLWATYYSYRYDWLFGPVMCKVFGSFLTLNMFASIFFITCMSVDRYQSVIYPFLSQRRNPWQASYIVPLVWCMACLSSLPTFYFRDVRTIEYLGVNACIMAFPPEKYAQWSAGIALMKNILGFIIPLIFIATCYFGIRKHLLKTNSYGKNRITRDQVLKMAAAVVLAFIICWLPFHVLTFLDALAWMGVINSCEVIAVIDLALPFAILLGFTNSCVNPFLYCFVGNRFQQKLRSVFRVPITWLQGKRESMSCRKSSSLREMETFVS
// NB: equality with 100 nM counts as 0 (no); only IC50 strictly below is 1 (yes)

| compound | label class |
| --- | --- |
| c1ccc2sc(CN3CCN(c4cc(OCC5CC5)ccc4-c4nn[nH]n4)CC3)nc2c1 [Compound A-54] | 0 (no) |
| Cc1cnc(C(C)N2CCN(c3cc(CC(C)C)cc(F)c3-c3nn[nH]n3)C[C@@H]2C)s1 (some centres unmarked) [Compound A-226] | 1 (yes) |
| Cc1cnc(CN2CCN(c3cc(CC(C)C)ccc3-c3nn[nH]n3)CC2)s1 [Compound A-106] | 1 (yes) |
| CC(C)Cc1ccc(-c2nn[nH]n2)c(N2CCN(Cc3cccnn3)[C@@H](C)C2)c1F [Compound A-176] | 1 (yes) |
| CC(C)Cc1cc(C2CC2)c(-c2nn[nH]n2)c(N2CCN(Cc3nc4ccccc4s3)CC2)c1 [Compound A-137] | 1 (yes) |
| COCCNc1ccc(-c2nn[nH]n2)c(N2CCN(Cc3nc4ccccc4s3)CC2)c1 [Compound A-63] | 0 (no) |
| CC(C)Cc1cc(F)c(-c2nn[nH]n2)c(N2C[C@@H](C)N(Cc3cccnn3)[C@@H](C)C2)c1 [Compound A-186] | 1 (yes) |

====

molecular target: CYP2C9 (Homo sapiens (Human)); experiment: CYP inhibition, CYP2C9; type: in vitro ADME; conditions: test compound at 10 μM, read-out: % Inhibition (PIN) 2C9
Sequence (P11712 whole entry): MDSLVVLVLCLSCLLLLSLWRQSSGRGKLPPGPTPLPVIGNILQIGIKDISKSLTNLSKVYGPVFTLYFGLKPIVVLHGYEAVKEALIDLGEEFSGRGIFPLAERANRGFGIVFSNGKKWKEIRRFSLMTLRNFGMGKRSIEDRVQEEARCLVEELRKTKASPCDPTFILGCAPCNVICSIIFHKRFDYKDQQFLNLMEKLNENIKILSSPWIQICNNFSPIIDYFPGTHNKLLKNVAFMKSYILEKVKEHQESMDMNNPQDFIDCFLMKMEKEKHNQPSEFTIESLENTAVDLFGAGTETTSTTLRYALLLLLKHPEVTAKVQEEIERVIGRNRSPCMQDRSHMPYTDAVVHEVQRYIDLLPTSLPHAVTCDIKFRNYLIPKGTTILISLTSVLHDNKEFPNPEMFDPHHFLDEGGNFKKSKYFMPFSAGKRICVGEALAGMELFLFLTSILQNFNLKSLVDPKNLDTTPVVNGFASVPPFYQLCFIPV
# reported inhibition at 10 µM; entries follow
quantity: inhibition at 10 µM (%)

| molecule | experimental system | experimental value |
| --- | --- | --- |
| CC(C)Cc1cc(F)c(-c2nn[nH]n2)c(N2CCN(Cc3cccnn3)C(C)C2)c1 (stereo not shown) | CYP2C9 (Homo sapiens (Human)) | 17.2 |
| CC(C)Oc1ccc(-c2nn[nH]n2)c(N2CCN(Cc3nc4ccccc4c(=O)[nH]3)CC2)c1 | CYP2C9 (Homo sapiens (Human)) | 62.4 |
| CC(C)Cc1ccc(-c2nn[nH]n2)c(N2CCN(Cc3cccnn3)CC2)c1 | CYP2C9 (Homo sapiens (Human)) | 28.4 |
| CCCCNC(=O)NS(=O)(=O)c1ccc(C(F)(F)F)cc1N1CCN(Cc2nc3ccccc3n2C)CC1 | CYP2C9 (Homo sapiens (Human)) | 46.1 |
| CCC1CN(c2cc(CC(C)C)cc(F)c2-c2nn[nH]n2)CCN1Cc1cccnn1 (stereo not shown) | CYP2C9 (Homo sapiens (Human)) | 45.6 |
| CC(C)Cc1cc(F)c(-c2nn[nH]n2)c(N2CCN(Cc3cccnn3)[C@@H](C)C2)c1 | CYP2C9 (Homo sapiens (Human)) | 20.9 |
| CC(C)Cc1ccc(-c2nn[nH]n2)c(N2CCN(Cc3nc4ccccc4c(=O)[nH]3)CC2)c1 | CYP2C9 (Homo sapiens (Human)) | 73 |
| Cc1cnc(CN2CCN(c3cc(CC(C)C)cc(F)c3-c3nn[nH]n3)C[C@@H]2C)s1 | CYP2C9 (Homo sapiens (Human)) | 43 |
| Cc1cc(CN2CCN(c3cc(CC(C)C)ccc3-c3nn[nH]n3)CC2)no1 | CYP2C9 (Homo sapiens (Human)) | 32.1 |
| CC(C)Oc1ccc(-c2nn[nH]n2)c(N2CCN(Cc3nc4ccccc4n3C)CC2)c1 | CYP2C9 (Homo sapiens (Human)) | 36.6 |
